# pIC50 against Vascular endothelial growth factor receptor 2 (Homo sapiens), merged from multiple literature sources
Entry type: numeric. Quantity: pIC50, the -log10 of concentration in molar units.

As a guide, the following entries are already answered.
INSERT INTO assay_data (chemical_smiles, outcome_measure, numeric_result) VALUES
  ('COc1ccc(CN2C3CC2CN(c2ccc(-c4cc(N5CC(OC)C5)cn5ncc(C#N)c45)cn2)C3)cn1', 'pIC50', 8.64),
  ('COc1cc(OC)cc(N(CCNC(C)C)c2ccc3ncc(C(=O)NCCCN4CCCCC4)nc3c2)c1', 'pIC50', 6.95),
  ('COc1cc2nccc(Oc3ccc(NC(=O)Nc4ccccc4)cc3)c2cc1C#N', 'pIC50', 7.66);

Param item = C=CC(=O)Nc1cc2c(Nc3ccc(Br)cc3F)ncnc2cc1OCCCNC(=O)NCC ; retrieve measured pIC50.
6.68
